- Test system: MS2 coat protein
- testDetails: apparent Kd, MS2 coat protein; higher = weaker binding; RNA-MaP array
- protocolConditions: designed as: ON switch for flavin mononucleotide; no ligand
readoutLabel: apparent Kd
Reply with the number and its unit after it.

[
  {
    "sequenceEntry": "GAAUGAAUACAAGGAUAUCCCACAUGAGGAUCACCCAUGUAAAUACAAAUGUAAUACGUUGCUAAGGAGAAGGUGUAGAACAAA",
    "result": "113 nM"
  },
  {
    "sequenceEntry": "GCAUGGACAUGAGGAUCACCCAUGUGUCGCCCUGGACCCGUUAGAAGGCCGUUCCAGAGAACAACGGAGGAUAUAAUUACAGCC",
    "result": "35.7 nM"
  },
  {
    "sequenceEntry": "CAAGUAGUGGCAUUAACAUGAGGAUCACCCAUGUUGUGCGUCAGAAGGGCUCUAAUGGAUAACCAGCAGGAUAUGAUUUUCAUC",
    "result": "6.92 nM"
  }
]

Continue with the sequence presented below.
The reported apparent Kd of the sequence GAGAGAAAGCCAGGAUAUUAGAACUAGGCACAUGAGGAUCACCCAUGUGGUGAUGAUCAUAAGACUAAGAAGGGGCACCGGAUU was 521 nM

* * *

- Tested on: MS2 coat protein
- testDetails: apparent Kd, MS2 coat protein; higher = weaker binding; RNA-MaP array
- protocolConditions: designed as: ON switch for flavin mononucleotide; no ligand
readoutLabel: apparent Kd (nM)
Form entry: value (nM) — number only.

[
  {
    "sequenceEntry": "AAGGGUCAACAGAAGGUUGUCGAACAUUGCGCCAAAGGAUAUGUCUACCGUUUAAGCGUUCGUCACAUGAGGAUCACCCAUGUU",
    "resultNumber": 26.8
  },
  {
    "sequenceEntry": "CUCAUGAGGAAGAAGGAUUAGGUCAGUGCAGUAAUAGGAUAUUCGUAACACAUGAGGAUCACCCAUGUCUACUCCGGAGCGACA",
    "resultNumber": 182
  },
  {
    "sequenceEntry": "AAACAAAUGCAAGGAUAUCAUAAUACAAACAGGAGAGAAGGUGCAGAGCACAUGAGGAUCACCCAUGUCCUAGGAUAUUCCUAA",
    "resultNumber": 121
  }
]

Continue with the sequence presented below.
The reported apparent Kd of the sequence UGGAAAUGAAUAGGAUAUCAGUGUUGUCUAUAACAUGAGGAUCACCCAUGUUUCCAUUGGCCUCGUGAGAAGGAUUCUAGUAUU was 81.6

* * *

- Test system: MS2 coat protein
- testDetails: apparent Kd, MS2 coat protein; higher = weaker binding; RNA-MaP array
- protocolConditions: ligand present: flavin mononucleotide; designed as: ON switch for flavin mononucleotide
Here, each record is paired with measured apparent Kd data.
Form entry: value (nM) — number only.

Some entries whose results are on file:
[
  {
    "sequenceEntry": "CGUCCCUAGCAGAAGGUUCUUUGGGCUGCAGUGAAAGGAUAUGCCAGCACAUGAGGAUCACCCAUGUCUGUCGGAUGCACCAGA",
    "resultNumber": 47
  },
  {
    "sequenceEntry": "ACGAAAUCUUAAACUUACGCACAUGAGGAUCACCCAUGUCACUAGGAUAUUAAAACAAAACAAUGUAAGAAGGAGUGAGAAAAG",
    "resultNumber": 11.8
  },
  {
    "sequenceEntry": "AUUUGACAUGAGGAUCACCCAUGUGACUUGUCGUGAGGAUAUUAUUGAAAUCUAUGUCAUUAAGAAGGCACAAUUU",
    "resultNumber": 16.5
  }
]

Continue with the sequence presented below.
Entry UGGAAAUGAAUAGGAUAUCAGUGUUGUCUAUAACAUGAGGAUCACCCAUGUUUCCAUUGGCCUCGUGAGAAGGAUUCUAGUAUU ; assay system MS2 coat protein; apparent Kd recorded at 22.3

* * *

- Tested on: MS2 coat protein
- testDetails: apparent Kd, MS2 coat protein; higher = weaker binding; RNA-MaP array
- protocolConditions: ligand present: flavin mononucleotide; designed as: ON switch for flavin mononucleotide
readoutLabel: apparent Kd (nM)
Form entry: value (nM) — number only.

Some entries whose results are on file:
[
  {
    "sequenceEntry": "GAAUGAAUACAAGGAUAUCCCACAUGAGGAUCACCCAUGUAAAUACAAAUGUAAUACGUUGCUAAGGAGAAGGUGUAGAACAAA",
    "quantityUnit": "nM",
    "apparent Kd": 28.9
  },
  {
    "sequenceEntry": "UCAUCACAUGAGGAUCACCCAUGUCGUAGGUGAUCAGGAUAUGCCUAUGCCUCCAUGGCGGCAGAAGGGAUGCGGG",
    "quantityUnit": "nM",
    "apparent Kd": 603
  },
  {
    "sequenceEntry": "AAGGGUCAACAGAAGGUUGUCGAACAUUGCGCCAAAGGAUAUGUCUACCGUUUAAGCGUUCGUCACAUGAGGAUCACCCAUGUU",
    "quantityUnit": "nM",
    "apparent Kd": 18.3
  }
]

The reported apparent Kd of the sequence GACAGAAAGUCAGGAUAUGAACGGUCAUGACAUGAGGAUCACCCAUGUUUCUUGUGCACCCUGCGUCAGAAGGGACUAGUGAGG was 12.8

The reported apparent Kd of the sequence GAAAUCAGAGAGAAGGGUUUACAUCCGACAUGAGGAUCACCCAUGUAGUAAAACUACGACAACUAACAGGAUAUCACUGGCACC was 176

The reported apparent Kd of the sequence GCCUUAGGGGCAGGAUAUUUCGAGGACCUCAACAUGAGGAUCACCCAUGUACCGCAAUCGUCUCUAAAGAAGGGCCUCUUGCUC was 28.5

The reported apparent Kd of the sequence AAACGACAUGAGGAUCACCCAUGUACCUUUUACCUAGGAUAUCAGGUGCAUCAUACGUGCUGAGAAGGAGGCUCGC was 59.7

* * *

- Test system: MS2 coat protein
- testDetails: apparent Kd, MS2 coat protein; higher = weaker binding; RNA-MaP array; theophylline 2 mM where present
- protocolConditions: ligand present: theophylline; designed as: ON switch for theophylline
Classification field. Basis: apparent Kd. Definitions: bottom range (below 20 nM), center range (20 nM to below 70 nM), top range (70 nM or more)

[
  {
    "sequenceEntry": "GCACUACAUGAGGAUCACCCAUGUGCAGAUACCAGAGGUGUAUGCCUCCCUUGGCAGCUGAGUAGCUCUGGAGGCCUAUUGGUUU",
    "labelClass": "bottom range"
  }
]

// next entry
Task item: Quick check: band for GGUGAUCCGUAUCACCGGAUCACCGGUGAUACCAGCAUCGAAAGAUGCCCUUGGCAGCACCAACAUGAGGAUCACCCAUGUAAUA
Reply: center range

* * *

- System: MS2 coat protein
- testDetails: apparent Kd, MS2 coat protein; higher = weaker binding; RNA-MaP array; FMN 200 µM where present
- protocolConditions: ligand present: flavin mononucleotide; designed as: OFF switch for flavin mononucleotide
Here, each record is paired with measured apparent Kd data.
Form entry: value (nM) — number only.

Some entries whose results are on file:
[
  {
    "sequenceEntry": "UGAACUAUGUAGAAGGCCCACAUUAAUAUGUAGGGAGGAUAUACAUGAGGAUCACCCAUGUAAAGAGCAAGAGGAUUUAACAGA",
    "testedTarget": "MS2 coat protein",
    "readoutLabel": "apparent Kd",
    "quantityUnit": "nM",
    "resultNumber": 21.7
  },
  {
    "sequenceEntry": "GUGUACAGAGGAUAUAUAUGAGCAUGGAAACAUGCAAGAUCACAUGAGGAUCACCCAUGUAGAAGGCUGUACAC",
    "testedTarget": "MS2 coat protein",
    "readoutLabel": "apparent Kd",
    "quantityUnit": "nM",
    "resultNumber": 541
  },
  {
    "sequenceEntry": "AAAGGUUGAGGAUAUGCGUGGAAAAAGUGUAUUCAAAAAAAACAUGAGGAUCACCCAUGUAGAAGGCGACCAAA",
    "testedTarget": "MS2 coat protein",
    "readoutLabel": "apparent Kd",
    "quantityUnit": "nM",
    "resultNumber": 245
  }
]

The reported apparent Kd of the sequence ACUGCCACAGGAUAUACGAAACUCUUGGGUUCCGCCGUGUGACAUGAGGAUCACCCAUGUAGAAGGGUGGCUUA was 416

The reported apparent Kd of the sequence CCGGCUUAGGAGGAUAUAGGAGUCGAUAGACACCUAGAAGGCCUAACAUGAGGAUCACCCAUGUGUCCUACCGG was 61.5

The reported apparent Kd of the sequence CCAGGCUGUGUGAGGAUAUGCUGGUCCUUGGAUCAGCAGAAGGCACAUGAGGAUCACCCAUGUGAAAAGCUUGG was 57.6

The reported apparent Kd of the sequence AGCGGUGCAGGAUAUGGCCGAUCCCACAUGAGGAUCACCCAUGUAAAUAAAAUAAGAUCUCCAGAAGGGCAUCGCA was 15.6
